// data source = patent US12097190B2

Catalogue of Optimal Adherence Concentration (nM)*** readings, one per entry.
- Target or test system: cell surface human leukocyte elastase (HLE-CS) (Homo sapiens)
- Construct: endogenous in cells
- Measurement description: Adherence of U937 cells to compound-coated glass (binding to HLE-CS)
- Type: cell-based
- Condition summary: 2,000 U937 cells added per compound-treated well
- Description: Adherence is the first step in cell migration and requires […] calcium, magnesium, signaling, or energy. […] […] After washing and fixing the cells, the number of adherent cells were counted microscopically.
Value kind: Optimal Adherence Concentration (nM)***

> print(dat)
                                   compound  reported
1  Cc1onc(-c2c(Cl)cccc2Cl)c1C(=O)N[C@@H]1C(=O)N2[C@@H]1SC(C)(C)[C@@H]2C(=O)O [Dicloxacillin]         1
2  C[C@@H](O)[C@H]1C(=O)N2C(C(=O)O)=C([C@H]3CCCO3)S[C@H]12 [Faropenem]        10
3  C[C@@H](O)[C@H]1C(=O)N2C(C(=O)O)=C(S[C@@H]3CN[C@H](CNS(N)(=O)=O)C3)[C@H](C)[C@H]12 [Doripenem]       100
4  O=C1[C@H](CC[C@H](O)c2ccc(F)cc2)[C@@H](c2ccc(O)cc2)N1c1ccc(F)cc1 [Ezetimibe]       100
5  CC1(C)S[C@@H]2[C@H](NC(=O)COc3ccccc3)C(=O)N2[C@H]1C(=O)O [Pen V, Penicillin V]        10
6  C[C@H]1[C@H](NC(=O)/C(=N\OC(C)(C)C(=O)O)c2csc(N)n2)C(=O)N1S(=O)(=O)O [Aztreonam]         1
7  CO/N=C(\C(=O)N[C@@H]1C(=O)N2C(C(=O)O)=C(COC(N)=O)CS[C@H]12)c1ccco1 [Cefuroxine, Cefuroxime]         1
8  CC1=C(C(=O)O)N2C(=O)[C@@H](NC(=O)[C@H](N)c3ccccc3)[C@H]2SC1 [Cephalexin]        10
9  CC1(C)S[C@@H]2[C@H](NC(=O)[C@H](N)c3ccc(O)cc3)C(=O)N2[C@H]1C(=O)O [Amoxicillin]         1

* * *

- Target or test system: soluble, granule-associated human leukocyte elastase (HLE-G) (Homo sapiens, UniProt P08246)
- Sequence (P08246 30-267): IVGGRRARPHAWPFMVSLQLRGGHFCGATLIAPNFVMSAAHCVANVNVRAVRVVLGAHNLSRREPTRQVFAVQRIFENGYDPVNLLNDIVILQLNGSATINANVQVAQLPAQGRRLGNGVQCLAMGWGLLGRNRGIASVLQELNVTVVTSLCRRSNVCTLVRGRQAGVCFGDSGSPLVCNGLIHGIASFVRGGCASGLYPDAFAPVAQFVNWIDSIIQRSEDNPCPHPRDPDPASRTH
- Measurement description: Inhibition of soluble human leukocyte elastase (HLE-G), SA3NA substrate, 405 nm
- Type: biochemical
- Condition summary: IC50 of compound versus HLE-G (75 μM)
Value kind: IC50 (µM)

> print(dat)
                                   molecule  value.kind  reported
1  Cc1onc(-c2c(Cl)cccc2Cl)c1C(=O)N[C@@H]1C(=O)N2[C@@H]1SC(C)(C)[C@@H]2C(=O)O [Dicloxacillin]        IC50       232
2  C[C@@H](O)[C@H]1C(=O)N2C(C(=O)O)=C(S[C@@H]3CN[C@H](CNS(N)(=O)=O)C3)[C@H](C)[C@H]12 [Doripenem]        IC50       178
3  O=C1[C@H](CC[C@H](O)c2ccc(F)cc2)[C@@H](c2ccc(O)cc2)N1c1ccc(F)cc1 [Ezetimibe]        IC50       277
4  C[C@H]1[C@H](NC(=O)/C(=N\OC(C)(C)C(=O)O)c2csc(N)n2)C(=O)N1S(=O)(=O)O [Aztreonam]        IC50       234
5  C[C@@H](O)[C@H]1C(=O)N2C(C(=O)O)=C([C@H]3CCCO3)S[C@H]12 [Faropenem]        IC50       203
6  CO/N=C(\C(=O)N[C@@H]1C(=O)N2C(C(=O)O)=C(COC(N)=O)CS[C@H]12)c1ccco1 [Cefuroxine, Cefuroxime]        IC50       167
7  CC1(C)S[C@@H]2[C@H](NC(=O)COc3ccccc3)C(=O)N2[C@H]1C(=O)O [Pen V, Penicillin V]        IC50       262

* * *

- Target or test system: cell surface human leukocyte elastase (HLE-CS) (Homo sapiens)
- Construct: endogenous in cells
- Sequence (P08246 30-267): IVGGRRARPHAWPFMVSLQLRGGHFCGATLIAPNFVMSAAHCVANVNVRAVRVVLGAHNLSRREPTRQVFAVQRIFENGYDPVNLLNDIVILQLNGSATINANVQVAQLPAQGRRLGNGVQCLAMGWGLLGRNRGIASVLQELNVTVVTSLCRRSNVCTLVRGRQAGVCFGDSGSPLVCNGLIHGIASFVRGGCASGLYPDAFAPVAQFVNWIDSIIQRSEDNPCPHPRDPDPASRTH
- Measurement description: Adherence of U937 cells to compound-coated glass (binding to HLE-CS)
- Assay type: cell-based
- Condition summary: 2,000 U937 cells added per compound-treated well; at optimal adherence concentration
Catalogue of Adherent Cells readings, one per entry.
Value kind: Adherent Cells

> print(dat)
                            compound.smiles                     target.or.test.system      value.kind  reported
1  CC1=C(C(=O)O)N2C(=O)[C@@H](NC(=O)[C@H](N)c3ccccc3)[C@H]2SC1  cell surface human leukocyte elastase (HLE-CS) (Homo sapiens)  Adherent Cells        27
2  C[C@@H](O)[C@H]1C(=O)N2C(C(=O)O)=C([C@H]3CCCO3)S[C@H]12  cell surface human leukocyte elastase (HLE-CS) (Homo sapiens)  Adherent Cells        23
3  CO/N=C(\C(=O)N[C@@H]1C(=O)N2C(C(=O)O)=C(COC(N)=O)CS[C@H]12)c1ccco1  cell surface human leukocyte elastase (HLE-CS) (Homo sapiens)  Adherent Cells        34
4  CC1(C)S[C@@H]2[C@H](NC(=O)COc3ccccc3)C(=O)N2[C@H]1C(=O)O  cell surface human leukocyte elastase (HLE-CS) (Homo sapiens)  Adherent Cells        30
5  C[C@H]1[C@H](NC(=O)/C(=N\OC(C)(C)C(=O)O)c2csc(N)n2)C(=O)N1S(=O)(=O)O  cell surface human leukocyte elastase (HLE-CS) (Homo sapiens)  Adherent Cells        33
6  O=C1[C@H](CC[C@H](O)c2ccc(F)cc2)[C@@H](c2ccc(O)cc2)N1c1ccc(F)cc1  cell surface human leukocyte elastase (HLE-CS) (Homo sapiens)  Adherent Cells        40
7  CC1(C)S[C@@H]2[C@H](NC(=O)[C@H](N)c3ccc(O)cc3)C(=O)N2[C@H]1C(=O)O  cell surface human leukocyte elastase (HLE-CS) (Homo sapiens)  Adherent Cells        54
8  Cc1onc(-c2c(Cl)cccc2Cl)c1C(=O)N[C@@H]1C(=O)N2[C@@H]1SC(C)(C)[C@@H]2C(=O)O  cell surface human leukocyte elastase (HLE-CS) (Homo sapiens)  Adherent Cells        26
9  C[C@@H](O)[C@H]1C(=O)N2C(C(=O)O)=C(S[C@@H]3CN[C@H](CNS(N)(=O)=O)C3)[C@H](C)[C@H]12  cell surface human leukocyte elastase (HLE-CS) (Homo sapiens)  Adherent Cells        52

* * *

Catalogue of Molar Excess** readings, one per entry.
- Target or test system: soluble, granule-associated human leukocyte elastase (HLE-G) (Homo sapiens, UniProt P08246)
- Measurement description: Inhibition of soluble human leukocyte elastase (HLE-G), SA3NA substrate, 405 nm
- Type: biochemical
- Condition summary: Molar excess of compound to HLE-G at IC50
Value kind: Molar Excess**

> print(dat)
                            compound.smiles  reported
1  O=C1[C@H](CC[C@H](O)c2ccc(F)cc2)[C@@H](c2ccc(O)cc2)N1c1ccc(F)cc1       3.7
2  C[C@@H](O)[C@H]1C(=O)N2C(C(=O)O)=C([C@H]3CCCO3)S[C@H]12       2.7
3  Cc1onc(-c2c(Cl)cccc2Cl)c1C(=O)N[C@@H]1C(=O)N2[C@@H]1SC(C)(C)[C@@H]2C(=O)O       3.1
4  C[C@H]1[C@H](NC(=O)/C(=N\OC(C)(C)C(=O)O)c2csc(N)n2)C(=O)N1S(=O)(=O)O       3.1
5  CO/N=C(\C(=O)N[C@@H]1C(=O)N2C(C(=O)O)=C(COC(N)=O)CS[C@H]12)c1ccco1       2.2
6  CC1(C)S[C@@H]2[C@H](NC(=O)COc3ccccc3)C(=O)N2[C@H]1C(=O)O       3.5
7  C[C@@H](O)[C@H]1C(=O)N2C(C(=O)O)=C(S[C@@H]3CN[C@H](CNS(N)(=O)=O)C3)[C@H](C)[C@H]12       2.4
